assay-system: HCMV polymerase (Human cytomegalovirus, UniProt P08546)
Construct: made in house; host or cells: SF-9 insect cells infected with recombinant baculovirus
Sequence (P08546 whole entry): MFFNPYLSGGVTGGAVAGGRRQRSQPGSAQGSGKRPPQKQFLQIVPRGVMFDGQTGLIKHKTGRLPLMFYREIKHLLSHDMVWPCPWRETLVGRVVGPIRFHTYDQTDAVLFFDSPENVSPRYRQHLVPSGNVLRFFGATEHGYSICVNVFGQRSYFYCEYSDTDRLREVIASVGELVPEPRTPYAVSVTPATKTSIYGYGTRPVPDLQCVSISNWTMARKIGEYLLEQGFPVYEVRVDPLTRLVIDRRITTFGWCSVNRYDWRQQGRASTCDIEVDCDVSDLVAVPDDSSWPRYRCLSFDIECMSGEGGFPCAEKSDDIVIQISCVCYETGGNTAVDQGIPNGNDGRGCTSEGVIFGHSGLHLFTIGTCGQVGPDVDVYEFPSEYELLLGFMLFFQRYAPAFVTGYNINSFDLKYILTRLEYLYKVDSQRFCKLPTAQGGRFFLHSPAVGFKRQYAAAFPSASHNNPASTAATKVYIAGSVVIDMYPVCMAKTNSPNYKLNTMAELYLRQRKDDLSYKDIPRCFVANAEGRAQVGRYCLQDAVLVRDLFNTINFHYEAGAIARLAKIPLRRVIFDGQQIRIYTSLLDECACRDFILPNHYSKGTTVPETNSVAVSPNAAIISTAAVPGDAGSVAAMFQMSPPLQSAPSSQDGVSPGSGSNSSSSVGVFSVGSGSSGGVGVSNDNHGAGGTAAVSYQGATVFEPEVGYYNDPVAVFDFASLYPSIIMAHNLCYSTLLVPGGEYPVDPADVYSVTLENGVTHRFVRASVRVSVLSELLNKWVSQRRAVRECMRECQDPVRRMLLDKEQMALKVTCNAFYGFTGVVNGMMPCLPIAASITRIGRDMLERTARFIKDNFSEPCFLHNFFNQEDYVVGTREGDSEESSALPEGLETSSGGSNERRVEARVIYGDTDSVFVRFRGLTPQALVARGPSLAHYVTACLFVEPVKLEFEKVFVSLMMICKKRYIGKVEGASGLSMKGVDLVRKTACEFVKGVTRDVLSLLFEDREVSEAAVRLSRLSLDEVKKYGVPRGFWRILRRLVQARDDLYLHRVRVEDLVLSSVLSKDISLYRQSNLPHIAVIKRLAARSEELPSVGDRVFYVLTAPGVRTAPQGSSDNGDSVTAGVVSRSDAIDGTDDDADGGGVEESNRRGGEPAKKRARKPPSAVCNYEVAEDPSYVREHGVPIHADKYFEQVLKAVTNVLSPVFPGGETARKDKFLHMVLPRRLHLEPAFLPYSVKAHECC
procedure-details: HCMV polymerase assay (scintillation proximity assay)
Type: biochemical
experimental-context: percentage of inhibition at 25 μM concentration in CMV polymerase assay
readout-name: inhibition at 25 µM
Express your answer as a number followed by its unit.

For every item in the list below, what is its measured inhibition at 25 µM?
1. COc1ccc(CNc2nnc(NC(=O)c3ccc(C#N)cc3)s2)cc1OC [compound 244]
2. O=C(/C=C/c1ccccc1Cl)Nc1nnc(NCCCn2ccnc2)s1 [compound 221]

Response:
["41%", "43.5%"]

For every item in the list below, what is its measured inhibition at 25 µM?
1. O=C(/C=C/c1ccccc1Cl)Nc1nnc(NC2CCCc3ccccc32)s1 (centres unmarked) [compound 374]
2. Cc1ccc(C(=O)Nc2nnc(NC3CCCCCC3)s2)cc1 [compound 323]

Response:
["28.1%", "33%"]

Query: Given N#Cc1ccc(C(=O)Nc2nnc(NCCc3ccccc3)s2)cc1 [compound 345] , report its inhibition at 25 µM on HCMV polymerase (Human cytomegalovirus, UniProt P08546).
Response: 30.9%
